# System: SNB-19 CNS
# test-description: NCI-60 one-dose screen, 48 h (100 = growth as untreated, 0 = no growth, -100 = all killed)
# condition: 10 µM unless noted
The panel holds about 83,000 compounds, 20% with a hit somewhere; the sample as a whole holds those more often.
This section presents molecules with their documented growth values.
Give the value, in units of %, as a plain number.

- CCCCCCCCCCCC(=O)OC(C)C(=O)NCCCC (stereo not drawn): 106
- CCC1CCCCN1C(=S)N/N=C(\C)c1ccccn1 (stereo not drawn): 16.2
- CN1CCC(CN2c3ccccc3Sc3ccccc32)C1 (stereo not drawn): 98.1
- O=C1c2ccccc2C(=O)c2c(O)c(Cl)cc(O)c21: 93.1
- Oc1ccc(Br)cc1Sc1cc(Br)ccc1O: 41.3
- O=[N+]([O-])c1cc(-c2ccccc2)c(O)c([N+](=O)[O-])c1: 68.2
- CC(=O)N1CC(=O)NC1=S: 101
- CCC1C[N+]2=C(c3cc(OC)c(OC)cc3CC2)c2c1cc1n2CCc2cc(OC)c(OC)cc2-1 (stereo not drawn): 33.8
- COc1cc2c(c(OC)c1OC)-c1ccc(NCc3ccccc3)c(=O)cc1[C@@H](NC(C)=O)CC2: 64.2
- O=C1/C(=C\c2ccc([N+](=O)[O-])cc2)CS(=O)(=O)C/C1=C/c1ccc([N+](=O)[O-])cc1: -96.3

Q) Give recorded growth. `Cc1cccc2c(N)c3ccccc3nc12`
A) 27.5

Q) Give recorded growth. `CCOC(=O)C1=NN(c2ccccc2)C(=O)/C1=C\N1C(=O)/C(=C/c2cccc(O)c2)SC1=S`
A) 94.4

Q) Give recorded growth. `CCCC[n+]1c(/C=C\c2c(OC)cc(OC)cc2OC)ccc2ccccc21`
A) 19

Q) Give recorded growth. `Cc1cc(C(N)=O)cc(C)c1C(=O)OCCCl`
A) 109

---

# System: M14 melanoma
# test-description: NCI-60 one-dose screen, 48 h
# condition: 10 µM unless noted
The panel holds about 83,000 compounds, 20% with a hit somewhere; the sample as a whole holds those more often. Calls of active or inactive are those of the source. The calls were made as follows: active = growth percent below 10; inactive = the rest.
Entry note: the call must match one of active, inactive

Use the examples below as a reference point.
- CN(C)c1ccc(/C=C/c2cc[n+](C)c(/C=C/c3ccc(N(C)C)cc3)c2)cc1: inactive
- O=[N+]([O-])c1ccc(C2N(Cc3ccc(Cl)cc3)CCN2Cc2ccc(Cl)cc2)cc1: inactive
- O=[N+]([O-])c1ccc(N2CCN(Cc3ccccc3)CC2)c2c1no[n+]2[O-]: inactive
- CCCCCCCCCCCC[S+](C)CC(=O)[O-] (stereo not given): inactive

Q) For `C/C(=N\NC(=S)N1CC2CCC(CC2)C1)c1ccccn1` , what call appears in the results of this test?
A) active

---

# System: BT-549 breast
# test-description: NCI-60 one-dose screen, 48 h (100 = growth as untreated, 0 = no growth, -100 = all killed)
# condition: 10 µM unless noted
About 83,000 compounds went through this panel and 20% of them were active in at least one assay; those are over-represented in the sample as a whole.
Class assignment keyed on growth, ranges bin 1 = under 40%, bin 2 = from 40% up to 90%, bin 3 = 90% and over

Use the examples below as a reference point.
- Cc1oc2c(C)c3oc(=O)cc(C)c3cc2c1CCl: bin 2
- NC(=S)Nc1ccc2c(c1)Cc1ccccc1-2: bin 2
- O=C(/C=C/c1ccccc1)c1ccccc1O: bin 2
- Nc1nc2ncc(CNc3ccc(C(=O)NC(CCC(=O)NC(CCC(=O)NC(CCC(=O)NC(CCC(=O)NC(CCC(=O)O)C(=O)O)C(=O)O)C(=O)O)C(=O)O)C(=O)O)cc3)nc2c(=O)[nH]1 (stereo not drawn): bin 3
- CC1=CC(=NC(=O)CBr)C=C/C1=N\S(=O)(=O)c1ccccc1: bin 2
- COc1cc(/C=C/c2ccnc3ccccc23)cc(OC)c1OC: bin 1
- NC1=C(Br)C(=O)c2ncccc2C1=O: bin 1
- COC(=O)c1nc(=S)[nH]c(C(=O)OC)c1C(=O)c1ccc(Cl)c(Cl)c1: bin 3
- O=C1c2ccccc2C(=O)c2c(O)c(Cl)cc(O)c21: bin 3
- CN(C)c1ccc(/C=C/c2cc[n+](C)c(/C=C/c3ccc(N(C)C)cc3)c2)cc1: bin 1

Q) Record CC1(C)OC2C(COC(c3ccccc3)(c3ccccc3)c3ccccc3)OC(c3c[nH]c4c(N)ncnc34)C2O1 (stereo not drawn) — which class?
A) bin 2

Q) Record `CCCOS(=O)(=O)c1ccccc1` — which class?
A) bin 3

Q) Record `C[n+]1ccccc1C[n+]1ccccc1` — which class?
A) bin 3

Q) Record `O=C1C=CC(=O)N1c1ccc(O)cc1` — which class?
A) bin 3

Q) Record `CCN(CC)CCNc1ccc([N+](=O)[O-])c2sc3ccccc3c(=O)c12` — which class?
A) bin 2

Q) Record `Oc1ccc(Br)cc1Sc1cc(Br)ccc1O` — which class?
A) bin 2

Q) Record `Clc1ccc(Cc2nc3ccccc3s2)cc1` — which class?
A) bin 2

Q) Record `N=C1C=C(N)C(=O)c2ccccc21` — which class?
A) bin 1

Q) Record `CCCCCCCCCCCC[n+]1ccc2ccccc2c1` — which class?
A) bin 1

Q) Record `CCCC[n+]1c(/C=C\c2c(OC)cc(OC)cc2OC)ccc2ccccc21` — which class?
A) bin 1

Q) Record `[Cl-].[Rh+3].c1ccc(-c2ccnc3c2ccc2c(-c4ccccc4)ccnc23)cc1.c1ccc(-c2ccnc3c2ccc2c(-c4ccccc4)ccnc23)cc1.c1ccc(-c2ccnc3c2ccc2c(-c4ccccc4)ccnc23)cc1` — which class?
A) bin 2

Q) Record `O=[n+]1c2ccccc2n([O-])c2cc(Cl)ccc21` — which class?
A) bin 2

Q) Record `Oc1ccc2c(c1)CCc1ccccc1-2` — which class?
A) bin 3

---

# Test system: UO-31 renal
# test-description: NCI-60 one-dose screen, 48 h (100 = growth as untreated, 0 = no growth, -100 = all killed)
# condition: 10 µM unless noted
This is part of a sample that, as a whole, favours compounds with a hit. Of some 83,000 tested, about 20% had one in any assay.
Mark 1 for growth under 70%, -1 if at or over.

Use the examples below as a reference point.
- O=C(Nc1ccc(Cl)c(Cl)c1)OCc1ccco1: 1
- CCCc1cc(=O)oc2c3c(c4c(c12)OC(C)(C)CC4)OC(C)[C@H](C)[C@@H]3O (stereo partly drawn): 1

Q) Below 70% on growth? Entry `NC1=C(Br)C(=O)c2ncccc2C1=O`
A) 1

Q) Below 70% on growth? Entry `COc1ccc2nc3cc([N+](=O)[O-])ccc3c(NNc3ccccc3)c2c1`
A) -1

Q) Below 70% on growth? Entry `CCOC(=O)C1=NN(c2ccccc2)C(=O)/C1=C\N1C(=O)/C(=C/c2cccc(O)c2)SC1=S`
A) -1

Q) Below 70% on growth? Entry `Cc1cc(N/N=C/c2ccccn2)nc2ccccc12`
A) 1

Q) Below 70% on growth? Entry `CN(C)c1ccc(C(C#N)(c2ccccc2)c2ccc(N(C)C)cc2)cc1`
A) 1

Q) Below 70% on growth? Entry `O=C1C=CC(=O)N1c1cc(Cl)c(Cl)cc1Cl`
A) -1

Q) Below 70% on growth? Entry `O=C(O)c1ccc2c(c1)C(=O)c1ccccc1C2=O`
A) -1

---

# System: MDA-MB-231 breast
# test-description: NCI-60 one-dose screen, 48 h
# condition: 10 µM unless noted
Compounds without any hit were thinned out: in the full panel of roughly 83,000, 20% have a hit. Activity calls are given as the source filed them. Rule for the calls: active = growth percent below 10; inactive = the rest.
Entry note: the call must match one of Y for active, N for inactive

- c1csc(-c2[nH]nc3c2CCc2ccccc2-3)c1: N

Q) For `Cc1nc([N+](=O)[O-])c(Sc2nncc(-c3ccccc3)n2)n1C` , what call appears in the results of this test?
A) N

---

# Test system: MALME-3M melanoma
# test-description: NCI-60 one-dose screen, 48 h
# condition: 10 µM unless noted
Compounds without any hit were thinned out: in the full panel of roughly 83,000, 20% have a hit. Activity calls are given as the source filed them. The calls were made as follows: active = growth percent below 10; inactive = the rest.
Entry note: the call must match one of Yes = active, No = inactive

- NC(=S)N/N=C\c1nccc2c(N)cccc12: Yes
- CN1CSC(=S)N(Cc2ccccc2)C1: No
- O=C(Nc1cccc(C(F)(F)F)c1)Oc1ccc(Cl)c2cccnc12: Yes
- Cc1ccc2c(c1)sc(-c1ccc(N(C)C)cc1)[n+]2C: Yes
- Cc1ccc(NC2=CC(=O)C(=O)c3ccccc32)cc1: Yes
- CCCCCCCCCCCC1N=C(N)N=C(N)N1c1cccc(Br)c1 (stereo not given): No

Q) For C=C(C(N)=O)C(N)C(=O)O (stereo not given) , what call appears in the results of this test?
A) No

Q) For CCCCCCCCCCCC[S+](C)CC(=O)[O-] (stereo not given) , what call appears in the results of this test?
A) No

Q) For `COc1cc(OC)c(/C=C/c2c3ccccc3cc[n+]2C)c(OC)c1` , what call appears in the results of this test?
A) No

Q) For O=C(c1ccccc1)C(Br)[N+](=O)[O-] (stereo not given) , what call appears in the results of this test?
A) No

Q) For `c1ccc(-c2cccc(-c3ccccn3)n2)nc1` , what call appears in the results of this test?
A) Yes

Q) For `O=[N+]([O-])c1ccc(N2CCN(Cc3ccccc3)CC2)c2c1no[n+]2[O-]` , what call appears in the results of this test?
A) No

Q) For `O=C1c2ccccc2C(=O)c2c(O)c(Cl)cc(O)c21` , what call appears in the results of this test?
A) No

Q) For `O=[N+]([O-])c1ccc([I+]c2ccccc2)cc1` , what call appears in the results of this test?
A) Yes

Q) For `O=C(Cc1nc2cc(Cl)c(Cl)cc2nc1CC(=O)c1ccccc1)c1ccccc1` , what call appears in the results of this test?
A) No

Q) For `Cc1ccccc1NC(=O)Cc1csc2[n+]1C(=O)/C(=C/c1ccc([N+](=O)[O-])cc1)S2` , what call appears in the results of this test?
A) No

Q) For `CCCCCCCCCCCC1=NCCCN1CCCC` , what call appears in the results of this test?
A) No

Q) For CC1=CC(=O)C=CC1(C)C(Cl)(Cl)Cl (stereo not given) , what call appears in the results of this test?
A) No

Q) For `C(=N\Nc1ccc2ccccc2n1)/c1ccccn1` , what call appears in the results of this test?
A) Yes

Q) For `Cc1cc2cccnc2c2ncccc12` , what call appears in the results of this test?
A) No

Q) For `O=C1C(=O)c2cccnc2-c2ncccc21` , what call appears in the results of this test?
A) Yes

Q) For `O=C1C=Cc2ccccc2/C1=C/c1nc(-c2ccccc2)oc1O` , what call appears in the results of this test?
A) No

Q) For CCCc1cc(=O)oc2c3c(c4c(c12)OC(C)(C)CC4)OC(C)[C@H](C)[C@@H]3O (stereo not given in full) , what call appears in the results of this test?
A) No

Q) For `CC(=O)N1CC(=O)NC1=S` , what call appears in the results of this test?
A) No

Q) For `CCc1oc2ccccc2c1C(=O)c1cc(Br)c(O)c(Br)c1` , what call appears in the results of this test?
A) No
